target: human RIPK1 (1-375) (Homo sapiens, UniProt Q13546)
Construct: human RIPK1 (1-375) gene; GST; made in house; host or cells: Sf-9 insect cells
Sequence (Q13546 1-375): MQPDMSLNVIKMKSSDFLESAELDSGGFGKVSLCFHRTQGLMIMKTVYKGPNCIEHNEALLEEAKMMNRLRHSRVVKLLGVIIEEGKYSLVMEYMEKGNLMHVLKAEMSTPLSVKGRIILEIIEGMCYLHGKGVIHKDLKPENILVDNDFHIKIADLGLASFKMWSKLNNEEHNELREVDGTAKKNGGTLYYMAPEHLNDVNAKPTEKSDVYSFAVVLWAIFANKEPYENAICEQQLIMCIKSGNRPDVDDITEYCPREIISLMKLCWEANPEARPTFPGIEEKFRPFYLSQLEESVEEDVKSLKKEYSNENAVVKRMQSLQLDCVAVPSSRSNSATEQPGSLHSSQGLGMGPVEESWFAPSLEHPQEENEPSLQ
assay-overview: Human RIPK1 enzyme inhibitory effect (ADP-Glo Kinase Assay)
Format: biochemical
condition: read-out: human RIPK1 enzyme inhibitory effect at 10 μM (% inhibition), 10 μM test compound; well without enzyme = 100% inhibition
The compounds listed here are annotated with their inhibition at 10 µM.
Lab book: enter the figure in %, no units written.

- compound: "CN1C(=O)[C@@H](N2CCc3c(nn(Cc4ccccc4)c3Br)C2=O)COc2ccccc21"
  target: "human RIPK1 (1-375) (Homo sapiens, UniProt Q13546)"
  reported-value: 98
- compound: "CN1C(=O)C(N2CCc3c(nn(Cc4ccccc4)c3Cl)C2=O)CCc2ccncc21 (centres unmarked)"
  target: "human RIPK1 (1-375) (Homo sapiens, UniProt Q13546)"
  reported-value: 97
- compound: "CN1C(=O)[C@@H](N2CCc3c(nn(Cc4ccccc4)c3Cl)C2=O)COc2ccc(C(N)=O)cc21"
  target: "human RIPK1 (1-375) (Homo sapiens, UniProt Q13546)"
  reported-value: 101

What inhibition at 10 µM value was documented for this compound, `CNC(=O)c1ccc2c(c1)N(C)C(=O)[C@@H](N1CCc3c(nn(Cc4ccccc4)c3Cl)C1=O)CO2` ? 101

// query inhibition at 10 µM value for entry `CN1C(=O)[C@@H](N2CCc3cn(Cc4ncco4)nc3C2=O)COc2ccccc21` 96
